Every entry's value here was drawn from PubChem BioAssay (NCI).

Assay: NCI Yeast Anticancer Drug Screen. Data for the rad50 strain (AID 155);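 note: 0% = growth of vehicle-only cultures of the same strain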
Conditions: S. cerevisiae rad50 strain growth inhibition; at 5.0 µM (retest, dose inferred, filed as 0.5); stronger effect = higher value
Description: Growth inhibition of yeast strains with defined genetic alterations is measured as a screen for potential anti-cancer activity. Selected strains with alterations in DNA damage repair or cell cycle control were exposed to compounds and growth inhibition was measured relative to vehicle treated controls. The strain used in this assay is rad50
The panel holds about 79,000 compounds, 15% with a hit somewhere; the sample as a whole holds those more often.
quantity kind: growth inhibition (%)
Write it as a number; the unit % goes unstated.

- Cc1nc2c(Cl)cccc2c2ccccc12: 14

Proceeding to the next compound to report its growth inhibition.
Q: Entry `Nc1ccccc1Nc1c([N+](=O)[O-])cc(C(F)(F)F)cc1[N+](=O)[O-]` : reported growth inhibition = ?
Result: 53

###

Assay: NCI Yeast Anticancer Drug Screen. Data for the mec2-1 strain (AID 157)
Conditions: S. cerevisiae mec2-1 strain, at 50.0 µM (retest, dose inferred, filed as 5.0), stronger effect = higher value
This is part of a sample that, as a whole, favours compounds with a hit. Of some 79,000 tested, about 15% had one in any assay.
Entries and their measured growth inhibition follow.
Give just the numeric value; % need not be written.

Sample answers from the record:
- O=C(NC(Cc1ccc(I)cc1)C(=O)O)c1cccc(Br)c1 (stereo unspecified): 6
- CC/C(=C(\CC)c1ccc(O)c(CN(CC)CC)c1)c1ccc(OC)cc1: 62
- Cc1ccc(/C=C2\CCCC(CN(C)C)C2=O)cc1 (stereo unspecified): 99

Q: What measured growth inhibition goes with `O=C1OC(=O)c2ccc(S)c3cccc1c23` ?
Result: 85

Q: Item: N#CC(/C=C/c1ccccc1)(NO)Nc1cccc(Cl)c1 (stereo unspecified)
Result: 99

Q: Quick one: `Clc1ccc(SSc2ccc(Cl)cn2)nc1`
Result: 96

Q: Input `O=c1[nH]c2c([N+](=O)[O-])cc(Cl)cc2nc1/C=C(\O)c1ccc(F)cc1`
Result: 23

Q: For `Cc1ccc(NC(Nc2ccc(C)cc2C)=C(/C=C(\Cl)[N+](=O)[O-])[N+](=O)[O-])c(C)c1` then?
Result: 97

Q: Moving on to the next compound: N#CC1C(=O)NC(=O)C(C#N)C1c1c(Cl)cccc1Cl (stereo unspecified)
Result: 55

Q: Record: `OC1(c2ccccc2)CCN(c2c3ccccc3nc3ccccc23)CC1`
Result: 75

Q: How about this compound: `CCOC(=O)Cc1csc2[n+]1C(=O)/C(=C/c1ccc(OC)c(OC)c1)S2`
Result: 10

###

Entries annotated with measured growth inhibition
Assay: NCI Yeast Anticancer Drug Screen. Data for the bub3 strain (AID 167)
Conditions: S. cerevisiae bub3 mutant strain, at 5.0 µM (retest, dose inferred, filed as 0.5), stronger effect = higher value
Experimental: Growth inhibition of yeast strains with defined genetic alterations is measured as a screen for potential anti-cancer activity. Selected strains with alterations in DNA damage repair or cell cycle control were exposed to compounds and growth inhibition was measured relative to vehicle treated controls. The strain used in this assay is bub3
Compounds without any hit were thinned out: in the full panel of roughly 79,000, 15% have a hit.
Response body: numeric value in %, unit text excluded.

In the examples that follow, each entry is paired with its recorded growth inhibition.
• C[n+]1c(-c2ccc(/C=N\Nc3nnc(S)n3/N=C/c3ccc(-c4cn5ccccc5[n+]4C)cc3)cc2)cn2ccccc21 = 29
• C(/Cc1ccc2c(c1)OCO2)=N\NC1=NCCCCN1 = -1
• Cc1c(O)ccc2c1OCC(c1ccc(Cl)cc1)C2 (stereo not given) = 32

Q: # query: growth inhibition of entry O=C(CC(c1cccnc1)C(C(=O)c1ccc(Cl)cc1)C(CC(=O)c1ccc(Cl)cc1)c1cccnc1)c1ccc(Cl)cc1 (stereo not given)
Result: 11

Q: Please give the result for `CC(C)c1ncc(-c2ccccc2)cc1-c1ccccc1` too.
Result: 6

###

Assay: NCI Yeast Anticancer Drug Screen. Data for the mlh1 rad18 strain (AID 175)
Conditions: S. cerevisiae mlh1 rad18 strain growth inhibition; at 5.0 µM (retest, dose inferred, filed as 0.5); stronger effect = higher value
About 79,000 compounds went through this panel and 15% of them were active in at least one assay; those are over-represented in the sample as a whole. Calls of active or inactive are those of the source. Cut-off read from the data, not from the text of the source: active = growth inhibition above about 70%; inactive = the rest.
quantity kind: growth inhibition

Q: // lookup growth inhibition for `CCOC(=O)/C(=C\n1c(=O)sc2ccccc21)C(=O)c1ccccc1`
Result: 20% (inactive)

Q: Try `CNCCCNc1c2cc(OC)ccc2nc2cccc([N+](=O)[O-])c12` next.
Result: 41% (inactive)

Q: Thanks! And CC(C)=CC(=O)OC(CCCc1ccccc1)c1ccc2c(c1)OCO2 (stereo unspecified) ?
Result: 2% (inactive)

Q: Likewise for `O=c1[nH]c(Cc2ccccc2)nc2c1sc1nc3ccccc3n12` ?
Result: 18% (inactive)

Q: Try the compound `Cc1ccc(-c2c3nc(c(-c4ccc(C)cc4)c4ccc([nH]4)c(-c4ccc(C)cc4)c4nc(c(-c5ccncc5)c5ccc2[nH]5)C=C4)C=C3)cc1.Cc1ccc(-c2c3nc(c(-c4ccc(C)cc4)c4ccc([nH]4)c(-c4ccc(C)cc4)c4nc(c(-c5ccncc5)c5ccc2[nH]5)C=C4)C=C3)cc1.O=S(=O)([O-])C(F)(F)F.[Pt+2].c1ccc([PH+](CCC[PH+](c2ccccc2)c2ccccc2)c2ccccc2)cc1`
Result: 14% (inactive)

Q: Please answer likewise for `CC(C)c1ccc2c(c1)CC[C@H]1[C@](C)(C(=O)O)CCC[C@]21C`
Result: 9% (inactive)

###

Test: NCI Yeast Anticancer Drug Screen. Data for the mec2-1 strain (AID 157)
Settings: S. cerevisiae mec2-1 strain, at 50.0 µM (retest, dose inferred, filed as 5.0)
The panel holds about 79,000 compounds, 15% with a hit somewhere; the sample as a whole holds those more often. Active and inactive are the calls of the source. Cut-off read from the data, not from the text of the source: active = growth inhibition above about 70%; inactive = the rest.
Entry note: the call must match one of active, inactive

Q: Please indicate how the test categorized `O=C(O)C1CC[N-]CC1.O=C(O)C1CC[N-]CC1.[Cl][Pt+2]([Cl])([Cl])[Cl]` .
Result: active

Q: Next record, please: `Nc1ccc2nc3ccccc3nc2c1`
Result: inactive

Q: Quick one: `COC(=O)c1nnn(-c2ccc(Cl)cc2Cl)c1C(=O)c1ccc(Cl)c(Cl)c1`
Result: active

Q: Repeat for the following compound: `COc1cc2c[n+](C)c3c4cc(OC)c(OCc5ccccc5)cc4c(OCc4ccccc4)cc3c2cc1OC`
Result: active

Q: Okay, and `Cn1c(=O)ccc2cc(C(=O)c3ccccc3)ccc21` ?
Result: inactive

###

Assay: NCI Yeast Anticancer Drug Screen. Data for the rad50 strain (AID 155);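 note: 0% = growth of vehicle-only cultures of the same strain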
Details: S. cerevisiae rad50 strain growth inhibition; at 50.0 µM (retest, dose inferred, filed as 5.0)
Compounds without any hit were thinned out: in the full panel of roughly 79,000, 15% have a hit. Active and inactive are the calls of the source. Rule as the data show it: active = growth inhibition above about 70%; inactive = the rest.
Respond only with the outcome that fits, drawn from true (1) (active), false (0) (inactive)

Worked examples follow.
* CCOc1ccc2nc([NH-])sc2c1.CCOc1ccc2nc([NH-])sc2c1.[Cl][Pt+2][Cl] | false (0)
* c1ccc2c(CCc3ccncc3)cccc2c1 | true (1)
* Cc1nc2ccc(NCCN(C)C)c3c(=O)c4cc(O)ccc4n1c23 | false (0)
* O=C(/C=C/c1ccc(O)cc1)c1cc(Cl)ccc1O | true (1)
* Cc1ccc(S(=O)(=O)NNc2nc(N3CCOCC3)nc(N3CCOCC3)n2)cc1 | false (0)

Q: // outcome(item) with item = `CNCCCNc1c2cc(OC)ccc2nc2cccc([N+](=O)[O-])c12`
Result: true (1)

Q: Same again, this time with `CCC/C(=N\NC(=S)N(C)C)c1ccccn1`
Result: true (1)

Q: Entry to check: `CC1(C)CC(=N/O)/C(=N/O)C(=N\NC(N)=S)/C1`
Result: false (0)

###

Overview of reported growth inhibition across a group of molecules:
Experiment: NCI Yeast Anticancer Drug Screen. Data for the rad50 strain (AID 155);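 note: 0% = growth of vehicle-only cultures of the same strain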
Settings: S. cerevisiae rad50 strain growth inhibition; at 50.0 µM (retest, dose inferred, filed as 5.0); stronger effect = higher value
Compounds without any hit were thinned out: in the full panel of roughly 79,000, 15% have a hit.
# output: bare number, implied unit %

Some entries whose results are on file:
* O=C(O)/C(Cl)=C(\Cl)C(=O)Nc1c(Cl)cccc1Cl | 7
* COC(=O)CSc1nc2ccccc2[nH]1 | -48
* O=S(=O)(Nc1ccccc1Cl)c1ccccc1 | 80
* O=C(NCCCN1CCN(CCCNC(=O)c2cc(-c3ccccc3)nc3ccccc23)CC1)c1cc(-c2ccccc2)nc2ccccc12 | 95
* O=C1C=CC(=O)N1C12CC3CC(CC(C3)C1)C2 | 99
* Cc1nc(N)nc(-c2ccccc2)c1N=Nc1ccc(Cl)cc1 | 61
* Cc1ccc(SCC#CC#CCS(=O)c2ccc(C)cc2)cc1 (stereo not drawn) | 98
* CCOC(=O)C1=C(N)N(S(=O)(=O)c2ccc(C)cc2)CCC(C(=O)OC)=C1 | -4

Q: # query: growth inhibition of entry CCCC(CC)c1c(O)c(O)c(C(CC)CCC)c(C(CC)CCC)c1C(CC)CCC (stereo not drawn)
Result: 76

Q: Repeat for the following molecule: `Cn1c(=O)c2c(nc(CCCCCCCc3nc4c(c(=O)n(C)c(=O)n4C)n3C)n2C)n(C)c1=O`
Result: 5

Q: Would you mind doing `O=S(=O)(C#Cc1ccccc1)c1ccccc1` as well?
Result: 98
